- TEST TARGET: CFTR-S549N (Homo sapiens, UniProt P13569, S549N)
- Construct: expressed in transfected cells
- Sequence (P13569 whole entry S549N): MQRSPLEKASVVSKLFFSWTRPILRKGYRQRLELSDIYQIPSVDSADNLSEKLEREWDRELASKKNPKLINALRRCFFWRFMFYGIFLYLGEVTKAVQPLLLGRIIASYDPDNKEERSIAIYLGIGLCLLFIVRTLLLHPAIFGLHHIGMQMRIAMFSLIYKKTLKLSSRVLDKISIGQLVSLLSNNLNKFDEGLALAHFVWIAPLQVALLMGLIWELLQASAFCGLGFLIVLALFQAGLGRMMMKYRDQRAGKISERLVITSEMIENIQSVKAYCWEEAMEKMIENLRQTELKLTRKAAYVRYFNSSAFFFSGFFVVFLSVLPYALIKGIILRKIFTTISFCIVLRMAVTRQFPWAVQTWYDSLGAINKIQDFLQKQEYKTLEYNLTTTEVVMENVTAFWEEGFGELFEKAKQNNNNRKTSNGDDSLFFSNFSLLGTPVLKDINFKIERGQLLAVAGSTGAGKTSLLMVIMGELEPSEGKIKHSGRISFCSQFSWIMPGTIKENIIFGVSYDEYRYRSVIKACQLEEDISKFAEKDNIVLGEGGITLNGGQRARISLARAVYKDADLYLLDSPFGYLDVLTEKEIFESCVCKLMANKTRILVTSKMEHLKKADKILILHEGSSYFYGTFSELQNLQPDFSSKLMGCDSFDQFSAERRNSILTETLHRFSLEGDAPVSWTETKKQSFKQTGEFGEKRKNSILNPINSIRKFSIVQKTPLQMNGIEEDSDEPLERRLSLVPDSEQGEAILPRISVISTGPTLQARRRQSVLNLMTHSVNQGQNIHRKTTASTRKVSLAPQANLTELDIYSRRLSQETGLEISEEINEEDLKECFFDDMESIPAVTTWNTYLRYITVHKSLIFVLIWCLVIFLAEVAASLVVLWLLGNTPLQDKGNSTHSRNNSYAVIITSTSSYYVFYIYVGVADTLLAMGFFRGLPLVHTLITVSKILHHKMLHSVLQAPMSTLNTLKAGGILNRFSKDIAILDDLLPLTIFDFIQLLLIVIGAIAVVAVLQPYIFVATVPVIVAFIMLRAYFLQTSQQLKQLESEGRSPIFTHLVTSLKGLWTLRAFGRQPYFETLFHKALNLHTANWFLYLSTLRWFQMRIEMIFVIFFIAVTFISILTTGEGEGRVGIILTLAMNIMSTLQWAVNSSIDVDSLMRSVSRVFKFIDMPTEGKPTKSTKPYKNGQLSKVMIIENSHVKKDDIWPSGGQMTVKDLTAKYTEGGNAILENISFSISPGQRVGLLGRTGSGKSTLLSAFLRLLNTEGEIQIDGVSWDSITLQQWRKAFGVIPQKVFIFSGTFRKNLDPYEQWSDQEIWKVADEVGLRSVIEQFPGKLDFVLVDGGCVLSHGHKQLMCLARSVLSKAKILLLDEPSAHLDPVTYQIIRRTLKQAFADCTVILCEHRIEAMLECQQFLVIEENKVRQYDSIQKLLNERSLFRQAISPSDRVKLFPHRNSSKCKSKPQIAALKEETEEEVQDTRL
- TEST DESCRIPTION: YFP-halide influx assay for the CFTR-S549N
- Format: cell-based
MEASURED ENDPOINT: pEC50
For clarity, pEC50 is expressed as the negative log10 of concentration in mol/L.

Dear colleague, I am looking for the recorded pEC50 of the following compound: `CC(C)(O)C(=O)Nc1sc(S(=O)(=O)c2ccccc2Cl)cc1C(N)=O`
6.06

Dear colleague, I am looking for the recorded pEC50 of the following compound: `Cc1c(S(=O)(=O)c2ccc(OC(F)(F)F)cc2)sc(NC(=O)C(C)(C)O)c1C(N)=O`
6.92

Dear colleague, I am looking for the recorded pEC50 of the following compound: `COc1cc(S(=O)(=O)c2cc(C(N)=O)c(NC(=O)C(C)(C)O)s2)c(OC(F)F)cc1F`
5.99

Dear colleague, I am looking for the recorded pEC50 of the following compound: `NC(=O)c1cc(S(=O)(=O)c2ccc(OC(F)(F)F)cc2F)sc1NC(=O)C1(CO)CC1`
6.62

Dear colleague, I am looking for the recorded pEC50 of the following compound: `COc1cc(S(=O)(=O)c2cc(C(N)=O)c(NC(=O)C(C)(C)O)s2)c(OC(F)F)cn1`
6.74

Dear colleague, I am looking for the recorded pEC50 of the following compound: `CC(C)(O)C(=O)Nc1sc(S(=O)(=O)c2ccc(OC(F)(F)F)cc2F)cc1C(N)=O`
6.70

Dear colleague, I am looking for the recorded pEC50 of the following compound: `CC(C)(O)C(=O)Nc1sc(S(=O)(=O)c2ncc(C(F)(F)F)cc2F)cc1C(N)=O`
6.98

---

Form field: pEC50 (one value per entry).
- TEST TARGET: CFTR ΔF508 mutant (Homo sapiens, UniProt P13569, DEL508-508)
- Construct: expressed in transfected cells; host or cells: CFBE41o- (adenoviral transduction)
- Sequence (P13569 with tags, fused parts or gaps DEL508-508): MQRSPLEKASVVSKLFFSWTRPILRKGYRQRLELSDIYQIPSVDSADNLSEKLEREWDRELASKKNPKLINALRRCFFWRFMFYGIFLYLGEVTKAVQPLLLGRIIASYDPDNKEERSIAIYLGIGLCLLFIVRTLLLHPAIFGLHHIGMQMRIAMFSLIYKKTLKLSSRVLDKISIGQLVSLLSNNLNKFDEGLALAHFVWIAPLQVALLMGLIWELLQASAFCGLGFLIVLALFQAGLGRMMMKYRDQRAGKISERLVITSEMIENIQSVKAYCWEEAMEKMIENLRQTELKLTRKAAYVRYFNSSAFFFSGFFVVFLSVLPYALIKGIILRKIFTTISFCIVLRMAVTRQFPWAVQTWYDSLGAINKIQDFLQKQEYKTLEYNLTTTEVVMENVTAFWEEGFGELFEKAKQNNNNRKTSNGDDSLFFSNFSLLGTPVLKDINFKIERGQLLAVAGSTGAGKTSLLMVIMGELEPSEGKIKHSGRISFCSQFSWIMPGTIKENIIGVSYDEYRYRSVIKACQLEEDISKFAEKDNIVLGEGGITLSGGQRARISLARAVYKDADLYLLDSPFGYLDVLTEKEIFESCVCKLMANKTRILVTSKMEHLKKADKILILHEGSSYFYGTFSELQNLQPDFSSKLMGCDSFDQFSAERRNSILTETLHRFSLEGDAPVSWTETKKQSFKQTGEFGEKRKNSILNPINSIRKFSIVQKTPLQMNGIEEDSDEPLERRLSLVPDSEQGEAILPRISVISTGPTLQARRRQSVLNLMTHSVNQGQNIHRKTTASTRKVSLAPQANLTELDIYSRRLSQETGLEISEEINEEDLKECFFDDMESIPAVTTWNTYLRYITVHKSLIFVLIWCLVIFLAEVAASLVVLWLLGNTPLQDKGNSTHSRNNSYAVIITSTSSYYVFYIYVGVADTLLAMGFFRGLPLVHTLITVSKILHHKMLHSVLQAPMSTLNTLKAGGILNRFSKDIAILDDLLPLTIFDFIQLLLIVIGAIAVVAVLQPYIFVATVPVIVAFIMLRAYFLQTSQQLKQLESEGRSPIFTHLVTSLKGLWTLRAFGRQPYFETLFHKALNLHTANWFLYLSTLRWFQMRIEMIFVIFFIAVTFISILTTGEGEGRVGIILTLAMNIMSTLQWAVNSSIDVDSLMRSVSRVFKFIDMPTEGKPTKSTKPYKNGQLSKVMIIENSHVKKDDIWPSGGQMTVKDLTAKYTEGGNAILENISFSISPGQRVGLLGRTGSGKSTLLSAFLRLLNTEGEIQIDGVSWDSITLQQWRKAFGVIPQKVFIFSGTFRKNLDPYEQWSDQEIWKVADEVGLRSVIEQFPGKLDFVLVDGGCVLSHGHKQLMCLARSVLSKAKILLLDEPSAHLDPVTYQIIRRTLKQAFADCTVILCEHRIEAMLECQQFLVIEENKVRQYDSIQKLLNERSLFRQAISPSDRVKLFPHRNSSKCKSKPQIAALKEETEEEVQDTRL
- TEST DESCRIPTION: YFP-halide influx assay for the CFTR-ΔF508 mutation, gluconate buffer
- Type: cell-based
- ASSAY CONDITIONS: CFBE41o- cells, forskolin 10.67 μM
For clarity, pEC50 is expressed as the negative log10 of concentration in mol/L.

NC(=O)c1cc(S(=O)(=O)N2CCOCC2)sc1NC(=O)c1cc[nH]n1 6.60
CN(C)S(=O)(=O)c1cc(C(N)=O)c(NC(=O)c2ccccc2F)s1 6.87
CC(C)S(=O)(=O)c1cc(C(N)=O)c(NC(=O)c2ccccc2O)s1 7.04
NC(=O)c1cc(S(=O)(=O)N2CCCCC2)sc1NC(=O)CCc1ccccc1 6.24
Cc1ccc(C(=O)Nc2sc(S(=O)(=O)N3CCN(C)CC3)cc2C(N)=O)s1 6.03
NC(=O)c1cc(S(=O)(=O)C2CCCCC2)sc1NC(=O)c1ccccc1F 6.56
COc1ccccc1S(=O)(=O)c1cc(C(N)=O)c(NC(=O)c2ccccc2F)s1 6.84

Dear colleague, I am looking for the recorded pEC50 of the following compound: `CC(C)(O)C(=O)Nc1sc(S(=O)(=O)c2ccc(F)cc2)cc1C(N)=O`
6.96

---

- TEST TARGET: CFTR ΔF508 mutant (Homo sapiens, UniProt P13569, DEL508-508)
- Construct: expressed in transfected cells; host or cells: CFBE41o- (adenoviral transduction)
- TEST DESCRIPTION: YFP-halide influx assay for the CFTR-ΔF508 mutation (384 well, FDSS/μCell)
- Format: cell-based
- ASSAY CONDITIONS: CFBE41o- cells, CFTR-ΔF508, 1×D-PBS, fluorescence after 36 seconds
Form field: pEC50 (one value per entry).
For clarity, pEC50 is expressed as the negative log10 of concentration in mol/L.

Examples with answers:
COMPOUND	MEASURED ENDPOINT	ASSAY VALUE
CCc1ccccc1S(=O)(=O)c1cc(C(N)=O)c(NC(=O)C(C)O)s1 (stereo not shown)	pEC50	7.98
CC(C)(O)C(=O)Nc1sc(S(=O)(=O)c2cnc(C(F)(F)F)cn2)cc1C(N)=O	pEC50	7.51
CC(C)(O)C(=O)Nc1sc(S(=O)(=O)c2ccc(C#N)cc2F)cc1C(N)=O	pEC50	7.25
CCc1cc(C(=O)Nc2sc(S(=O)(=O)N3CCC(F)(F)CC3)cc2C(N)=O)n[nH]1	pEC50	7.01
CCc1ccccc1S(=O)(=O)c1cc(C(N)=O)c(NC(=O)c2ccccc2F)s1	pEC50	6.53
CN(Cc1ccc(F)cc1)S(=O)(=O)c1cc(C(N)=O)c(NC(=O)C2(O)CC2)s1	pEC50	7.50
Cc1ccc(S(=O)(=O)c2cc(C(N)=O)c(NC(=O)C(C)(C)O)s2)nc1	pEC50	6.80
CN(Cc1ccncc1)S(=O)(=O)c1cc(C(N)=O)c(NC(=O)c2cc[nH]n2)s1	pEC50	7.32
CN(CCC(F)(F)F)S(=O)(=O)c1cc(C(N)=O)c(NC(=O)c2cc[nH]n2)s1	pEC50	7.68
C[C@H](O)C(=O)Nc1sc(S(=O)(=O)c2ccc(OC(F)(F)F)cc2)cc1C(N)=O	pEC50	8.10

Give CFTR ΔF508 mutant (Homo sapiens, UniProt P13569, DEL508-508) pEC50 for CC(O)C(=O)Nc1sc(S(=O)(=O)c2ccc(F)cc2Cl)cc1C(N)=O (stereo not shown) [Compound 329]
7.63

Give CFTR ΔF508 mutant (Homo sapiens, UniProt P13569, DEL508-508) pEC50 for `CC(C)(O)C(=O)Nc1sc(S(=O)(=O)c2cc(F)c(F)cc2OC(F)F)cc1C(N)=O`
7.85

Give CFTR ΔF508 mutant (Homo sapiens, UniProt P13569, DEL508-508) pEC50 for `NC(=O)c1cc(S(=O)(=O)c2ccc(OC(F)(F)F)cc2F)sc1NC(=O)C1(CO)CC1`
7.78

Give CFTR ΔF508 mutant (Homo sapiens, UniProt P13569, DEL508-508) pEC50 for `NC(=O)c1cc(S(=O)(=O)N2CCOCC2)sc1NC(=O)c1ccccc1O`
7.57

Give CFTR ΔF508 mutant (Homo sapiens, UniProt P13569, DEL508-508) pEC50 for `CC(C)(O)C(=O)Nc1sc(S(=O)(=O)c2ccc(OC(F)F)cc2)cc1C(N)=O`
7.76

Give CFTR ΔF508 mutant (Homo sapiens, UniProt P13569, DEL508-508) pEC50 for CC(O)C(=O)Nc1sc(S(=O)(=O)c2ccc(F)cc2C(F)(F)F)cc1C(N)=O (stereo not shown)
7.95

---

Form field: pEC50 (one value per entry).
- TEST TARGET: CFTR ΔF508 mutant (Homo sapiens, UniProt P13569, DEL508-508)
- Construct: expressed in transfected cells; host or cells: CFBE41o- (adenoviral transduction)
- TEST DESCRIPTION: YFP-halide influx assay for the CFTR-ΔF508 mutation, PBS buffer (96 well)
- Assay type: cell-based
- ASSAY CONDITIONS: CFBE41o- cells, forskolin 10.67 μM
For clarity, pEC50 is expressed as the negative log10 of concentration in mol/L.

Examples with answers:
COMPOUND	pEC50
COc1ccc(CN(C)S(=O)(=O)c2cc(C(N)=O)c(NC(=O)c3cc[nH]n3)s2)cc1 [Compound 171]	7.43
CC(C)(O)C(=O)Nc1sc(S(=O)(=O)c2ccccc2OC(F)(F)F)cc1C(N)=O [Compound 271]	8.09
CC(C)(C)C(=O)Nc1sc(S(=O)(=O)c2cccc(F)c2)cc1C(N)=O [Compound 122]	6.94

Dear colleague, I am looking for the recorded pEC50 of the following compound: CC(C)N(c1ccc(F)cc1)S(=O)(=O)c1cc(C(N)=O)c(NC(=O)C2(O)CC2)s1 [Compound 237]
7.18

Dear colleague, I am looking for the recorded pEC50 of the following compound: NC(=O)c1cc(S(=O)(=O)c2ccc(F)cc2)sc1NC(=O)C(O)C(F)(F)F (stereo not drawn) [Compound 252]
7.31

Dear colleague, I am looking for the recorded pEC50 of the following compound: COc1ccccc1S(=O)(=O)c1cc(C(N)=O)c(NC(=O)C(C)(C)O)s1 [Compound 301]
6.76

Dear colleague, I am looking for the recorded pEC50 of the following compound: CN(Cc1ccc(F)cc1)S(=O)(=O)c1cc(C(N)=O)c(NC(=O)C2(O)CC2)s1 [Compound 231]
7.59

Dear colleague, I am looking for the recorded pEC50 of the following compound: CC(C)Oc1ccc(S(=O)(=O)c2cc(C(N)=O)c(NC(=O)C(C)(C)O)s2)cc1 [Compound 279]
7.26

Dear colleague, I am looking for the recorded pEC50 of the following compound: CC1(C)CN(S(=O)(=O)c2cc(C(N)=O)c(NC(=O)C(C)(C)O)s2)C1 [Compound 309]
6.94

Dear colleague, I am looking for the recorded pEC50 of the following compound: CN(Cc1ccc(C(F)(F)F)cc1)S(=O)(=O)c1cc(C(N)=O)c(NC(=O)c2cc[nH]n2)s1 [Compound 175]
7.21

Dear colleague, I am looking for the recorded pEC50 of the following compound: NC(=O)c1cc(S(=O)(=O)c2ccc(F)cc2)sc1NC(=O)C1COCCO1 (stereo not drawn) [Compound 277]
6.41

Dear colleague, I am looking for the recorded pEC50 of the following compound: NC(=O)c1cc(S(=O)(=O)c2ccc(F)cc2)sc1NC(=O)c1ccc(F)cn1 [Compound 266]
6.71

Dear colleague, I am looking for the recorded pEC50 of the following compound: COC1CCN(S(=O)(=O)c2cc(C(N)=O)c(NC(=O)C3(O)CC3)s2)CC1 [Compound 239]
6.53

Dear colleague, I am looking for the recorded pEC50 of the following compound: NC(=O)c1cc(S(=O)(=O)c2ccc(Cl)cc2)sc1NC(=O)C1(O)CC1 [Compound 225]
7.44

Dear colleague, I am looking for the recorded pEC50 of the following compound: COCCN(C1CC1)S(=O)(=O)c1cc(C(N)=O)c(NC(=O)C2(O)CC2)s1 [Compound 244]
6.82
